TARGET_OR_TEST_SYSTEM: human Y2 receptor (Homo sapiens)
Construct: expressed in transfected cells; membrane fraction
Sequence (P49146 1-381): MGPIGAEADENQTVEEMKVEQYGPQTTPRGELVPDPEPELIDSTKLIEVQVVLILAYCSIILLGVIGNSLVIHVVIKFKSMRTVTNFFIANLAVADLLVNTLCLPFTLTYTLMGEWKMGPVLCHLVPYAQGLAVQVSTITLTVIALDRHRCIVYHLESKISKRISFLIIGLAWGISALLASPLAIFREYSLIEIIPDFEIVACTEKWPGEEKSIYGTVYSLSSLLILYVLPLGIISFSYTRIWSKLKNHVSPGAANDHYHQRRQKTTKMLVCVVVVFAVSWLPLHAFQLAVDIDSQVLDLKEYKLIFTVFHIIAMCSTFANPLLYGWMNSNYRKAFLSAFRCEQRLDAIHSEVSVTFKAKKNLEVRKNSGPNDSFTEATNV
EXPERIMENT: Human Y2 Receptor G Protein Binding Assay (GBA), [35S]GTPγS
Assay type: biochemical
COND: EC50 of test compound/EC50 of PYY(3-36) (PYY3-36 taken as 1), hY2R/CHO membrane fraction
Non-standard residues stand in square brackets, D forms with d. *: point of attachment. Cha = N[C@@H](CC1CCCCC1)C(=O)O; Isobutyryl = CC(C)C(=O)*; Abu = CC[C@H](N)C(=O)O; Aib = CC(C)(N)C(=O)O
OBSERVED_PROPERTY: GBA EC50 Ratio
Form: value (number only, do not type unit).

Would you mind telling me what GBA EC50 Ratio value was observed for Isobutanoyl-[Abu26,27, Cha28,36, Aib31]-PYY(25-36) (Isobutyryl-R[Abu][Abu][Cha]NL[Aib]TRQR[Cha]-NH2; SMILES CC[C@H](NC(=O)[C@H](CCCNC(=N)N)NC(=O)C(C)C)C(=O)N[C@@H](CC)C(=O)N[C@@H](CC1CCCCC1)C(=O)N[C@@H](CC(N)=O)C(=O)N[C@@H](CC(C)C)C(=O)NC(C)(C)C(=O)N[C@H](C(=O)N[C@@H](CCCNC(=N)N)C(=O)N[C@@H](CCC(N)=O)C(=O)N[C@@H](CCCNC(=N)N)C(=O)N[C@@H](CC1CCCCC1)C(N)=O)[C@@H](C)O) [compound No. 94] ?
37

---

TARGET_OR_TEST_SYSTEM: human Y2 receptor (Homo sapiens, UniProt P49146)
Construct: expressed in transfected cells; membrane fraction
Sequence (P49146 1-381): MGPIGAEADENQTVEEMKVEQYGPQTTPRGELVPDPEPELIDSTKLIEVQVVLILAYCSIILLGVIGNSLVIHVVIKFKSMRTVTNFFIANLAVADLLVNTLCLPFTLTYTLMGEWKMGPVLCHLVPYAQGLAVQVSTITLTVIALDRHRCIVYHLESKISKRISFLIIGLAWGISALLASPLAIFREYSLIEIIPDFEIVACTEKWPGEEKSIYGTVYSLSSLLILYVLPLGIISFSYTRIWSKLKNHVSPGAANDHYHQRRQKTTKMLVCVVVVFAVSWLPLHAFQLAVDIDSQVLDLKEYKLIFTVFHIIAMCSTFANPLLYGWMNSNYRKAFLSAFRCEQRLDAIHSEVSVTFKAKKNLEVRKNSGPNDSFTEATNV
EXPERIMENT: Receptor Binding Assay (RBA) for Human Y2, [125I]-PYY displacement on hY2R/CHO membrane fraction
COND: IC50 of test compound/IC50 of PYY(3-36) (PYY(3-36) taken as 1)
Starred links: 1 amine or outer side, 2 acyl side, 3 side chain; linkers in the order of their positions; H or OH if unused. Non-standard residues stand in square brackets, D forms with d. Primed or numbered codes have the meaning given here. *: point of attachment. Ser(Me)″ = O-methylserine, COC[C@H](N[*:1])C(=O)[*:2]; 4Pal = N[C@@H](Cc1ccncc1)C(=O)O; Cha = N[C@@H](CC1CCCCC1)C(=O)O; Isobutyryl = CC(C)C(=O)*; Abu = CC[C@H](N)C(=O)O; Aib = CC(C)(N)C(=O)O; Bz = O=C(c1ccccc1)*
OBSERVED_PROPERTY: RBA IC50 Ratio
Form: value (number only, do not type unit).

SUBSTANCE	TARGET_OR_TEST_SYSTEM	OBSERVED_PROPERTY	ENDPOINT_VALUE
Isobutanoyl-[Abu26, Cha27,36, Pya(4)28, Aib31]-PYY(25-36) (Isobutyryl-R[Abu][Cha][4Pal]NL[Aib]TRQR[Cha]-NH2; SMILES CC[C@H](NC(=O)[C@H](CCCNC(=N)N)NC(=O)C(C)C)C(=O)N[C@@H](CC1CCCCC1)C(=O)N[C@@H](Cc1ccncc1)C(=O)N[C@@H](CC(N)=O)C(=O)N[C@@H](CC(C)C)C(=O)NC(C)(C)C(=O)N[C@H](C(=O)N[C@@H](CCCNC(=N)N)C(=O)N[C@@H](CCC(N)=O)C(=O)N[C@@H](CCCNC(=N)N)C(=O)N[C@@H](CC1CCCCC1)C(N)=O)[C@@H](C)O) [compound No. 83]	human Y2 receptor (Homo sapiens, UniProt P49146)	RBA IC50 Ratio	26
Benzoyl-[Asn26, Cha27,28,36, Aib31]-PYY(25-36) (Bz-RN[Cha][Cha]NL[Aib]TRQR[Cha]-NH2; SMILES CC(C)C[C@H](NC(=O)[C@H](CC(N)=O)NC(=O)[C@H](CC1CCCCC1)NC(=O)[C@H](CC1CCCCC1)NC(=O)[C@H](CC(N)=O)NC(=O)[C@H](CCCNC(=N)N)NC(=O)c1ccccc1)C(=O)NC(C)(C)C(=O)N[C@H](C(=O)N[C@@H](CCCNC(=N)N)C(=O)N[C@@H](CCC(N)=O)C(=O)N[C@@H](CCCNC(=N)N)C(=O)N[C@@H](CC1CCCCC1)C(N)=O)[C@@H](C)O) [compound No. 99]	human Y2 receptor (Homo sapiens, UniProt P49146)	RBA IC50 Ratio	19
Isobutanoyl-[Abu26, Cha27,28,36, Ser30, Aib31]-PYY(25-36) (Isobutyryl-R[Abu][Cha][Cha]NS[Aib]TRQR[Cha]-NH2; SMILES CC[C@H](NC(=O)[C@H](CCCNC(=N)N)NC(=O)C(C)C)C(=O)N[C@@H](CC1CCCCC1)C(=O)N[C@@H](CC1CCCCC1)C(=O)N[C@@H](CC(N)=O)C(=O)N[C@@H](CO)C(=O)NC(C)(C)C(=O)N[C@H](C(=O)N[C@@H](CCCNC(=N)N)C(=O)N[C@@H](CCC(N)=O)C(=O)N[C@@H](CCCNC(=N)N)C(=O)N[C@@H](CC1CCCCC1)C(N)=O)[C@@H](C)O) [compound No. 89]	human Y2 receptor (Homo sapiens, UniProt P49146)	RBA IC50 Ratio	26
Isobutanoyl-[Abu26, Cha27,36, Gln28, Aib31]-PYY(25-36) (Isobutyryl-R[Abu][Cha]QNL[Aib]TRQR[Cha]-NH2; SMILES CC[C@H](NC(=O)[C@H](CCCNC(=N)N)NC(=O)C(C)C)C(=O)N[C@@H](CC1CCCCC1)C(=O)N[C@@H](CCC(N)=O)C(=O)N[C@@H](CC(N)=O)C(=O)N[C@@H](CC(C)C)C(=O)NC(C)(C)C(=O)N[C@H](C(=O)N[C@@H](CCCNC(=N)N)C(=O)N[C@@H](CCC(N)=O)C(=O)N[C@@H](CCCNC(=N)N)C(=O)N[C@@H](CC1CCCCC1)C(N)=O)[C@@H](C)O) [compound No. 100]	human Y2 receptor (Homo sapiens, UniProt P49146)	RBA IC50 Ratio	45

Form field - read-out: RBA IC50 Ratio; system: human Y2 receptor (Homo sapiens, UniProt P49146); submitted item: Benzoyl-[Ser(Me)26, Cha27,28,36, Aib31]-PYY(25-36) (Bz-R[Ser(Me)″][Cha][Cha]NL[Aib]TRQR[Cha]-NH2; SMILES COC[C@H](NC(=O)[C@H](CCCNC(=N)N)NC(=O)c1ccccc1)C(=O)N[C@@H](CC1CCCCC1)C(=O)N[C@@H](CC1CCCCC1)C(=O)N[C@@H](CC(N)=O)C(=O)N[C@@H](CC(C)C)C(=O)NC(C)(C)C(=O)N[C@H](C(=O)N[C@@H](CCCNC(=N)N)C(=O)N[C@@H](CCC(N)=O)C(=O)N[C@@H](CCCNC(=N)N)C(=O)N[C@@H](CC1CCCCC1)C(N)=O)[C@@H](C)O) [compound No. 98]
18
